- System: CSF1R
- recorded-conditions: concentration: 1 μM, replicates: in singlicate; n = 1;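 note: KINOMEscan kinase panel screen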

>  <smiles-data>
Cc1ccc(Nc2ccnc(Nc3ccc(C)c(F)c3)n2)cc1O.Cl

>  <unit-abbreviation>
%

>  <%Inh>
29

$$$$
>  <smiles-data>
COc1cccc(NC(=O)NCCNc2ccnc(Nc3ccc(F)cc3)n2)c1

>  <unit-abbreviation>
%

>  <%Inh>
11

$$$$
>  <smiles-data>
Cc1ccccc1CC(=O)N1CCc2cc(-c3cn(C)c4ncnc(N)c34)ccc21

>  <unit-abbreviation>
%

>  <%Inh>
89

$$$$
>  <smiles-data>
COc1cc(Nc2nccc(N3CCC(NS(=O)(=O)c4ccc(NC(C)=O)cc4)CC3)n2)cc(OC)c1OC

>  <unit-abbreviation>
%

>  <%Inh>
19

$$$$
>  <smiles-data>
Cc1cc(-c2c(-c3ccc(F)cc3)ncn2CCCN2CCOCC2)nc(N)n1

>  <unit-abbreviation>
%

>  <%Inh>
14

$$$$

###

Below: a set of entries, each annotated with reported %Inh.
- Tested on: MYLK4
- recorded-conditions: concentration: 1 μM, replicates: in singlicate; n = 1

>  <compound>
COc1cccc(C2=C(Nc3cccc(O)c3)C(=O)NC2=O)c1 [SB-390771]

>  <unit-abbreviation>
%

>  <%Inh>
6

$$$$
>  <compound>
Cc1ccc(O)cc1Nc1ccnc2ccc(C(C)(C)C)cc12 [GW856805]

>  <unit-abbreviation>
%

>  <%Inh>
13

$$$$
>  <compound>
COc1ccc(C2=C(Nc3cccc(O)c3)C(=O)NC2=O)cc1 [SB-390766]

>  <unit-abbreviation>
%

>  <%Inh>
4

$$$$
>  <compound>
CC(C)NCC(Cc1ccccc1)NC(=O)c1cc(Br)c(-c2ccnc3[nH]ccc23)s1.Cl.Cl (stereo not shown) [GSK1383281]

>  <unit-abbreviation>
%

>  <%Inh>
79

$$$$
>  <compound>
CC(C)c1nc(-c2ccc(F)c(NS(=O)(=O)c3c(F)cccc3F)c2)c(-c2ccnc(Nc3ccc(N4CCOCC4)nc3)n2)s1 [GSK1804250]

>  <unit-abbreviation>
%

>  <%Inh>
1

$$$$
>  <compound>
CC(=O)Nc1cn2nc(Oc3cccc(NC(=O)c4cccc(C(F)(F)F)c4)c3)ccc2n1

>  <unit-abbreviation>
%

>  <%Inh>
3

$$$$
>  <compound>
O=C(O)C(F)(F)F.O=c1[nH]ccc2nc(N[C@@H]3CCNC3)nc(Nc3cc(Cl)cc(Cl)c3)c12 [GSK2188764]

>  <unit-abbreviation>
%

>  <%Inh>
36

$$$$
>  <compound>
Nc1ncnc2scc(-c3ccc(NC(=O)Cc4cc(F)ccc4F)cc3)c12.O=C(O)C(F)(F)F [SB-731254-M]

>  <unit-abbreviation>
%

>  <%Inh>
72

$$$$
>  <compound>
c1ccc(Oc2ccc(Nc3ccnc4cc(-c5ccc(CN6CCCCC6)o5)ccc34)cc2)nc1 [GW567143]

>  <unit-abbreviation>
%

>  <%Inh>
0

$$$$
>  <compound>
COc1ccc(NC(=O)c2ccoc2)cc1-c1ccc(C(=O)NCC2CC2)cc1 [GW810437]

>  <unit-abbreviation>
%

>  <%Inh>
0

$$$$
>  <compound>
COc1cccc(NC(=O)NCCNc2ccnc(Nc3ccc(F)cc3)n2)c1 [GSK1379879]

>  <unit-abbreviation>
%

>  <%Inh>
0

$$$$
>  <compound>
COc1cccc2c(-c3ccncc3)c(-c3ccc(F)cc3)nn12 [GW468513]

>  <unit-abbreviation>
%

>  <%Inh>
0

$$$$
>  <compound>
O=C(Nc1n[nH]c2nc(-c3ccccc3)ccc12)C1CC1 [SB-708999]

>  <unit-abbreviation>
%

>  <%Inh>
11

$$$$
>  <compound>
Cc1ccc(-c2ccc3occ(-c4ccc(S(C)=O)cc4)c3c2)nn1 (stereo not shown)

>  <unit-abbreviation>
%

>  <%Inh>
0

$$$$
>  <compound>
Nc1ncc(-c2ccc3nccc(-c4ccncc4)c3c2)cc1S(=O)(=O)N1CCCCC1 [GSK1693850]

>  <unit-abbreviation>
%

>  <%Inh>
10

$$$$
>  <compound>
COc1cc(Nc2nccc(N3CCC(NS(=O)(=O)c4ccc(NC(C)=O)cc4)CC3)n2)cc(OC)c1OC [GSK1379825]

>  <unit-abbreviation>
%

>  <%Inh>
0

$$$$
>  <compound>
Fc1cc(Cl)ccc1Nc1ccnc2cc(-c3ccc(CN4CCSCC4)o3)ccc12 [GW560106]

>  <unit-abbreviation>
%

>  <%Inh>
0

$$$$
>  <compound>
CN(C)CCOc1ccc(-c2cc(-c3ccc(Cl)c(O)c3)c(-c3ccncc3)[nH]2)cc1.Cl.Cl [SB-684387]

>  <unit-abbreviation>
%

>  <%Inh>
9

$$$$
>  <compound>
CCn1c(-c2nonc2N)nc2c(-c3ccccc3)ncc(OCCCN)c21.O=C(O)C(F)(F)F.O=C(O)C(F)(F)F [GSK260205]

>  <unit-abbreviation>
%

>  <%Inh>
0

$$$$

###

- Tested on: PHKG1
- recorded-conditions: concentration: 1 μM, replicates: in singlicate; n = 1
Binary classification by %Inh, with 6% as an inclusive lower bound for label 1; all other cases are label 0.

>  <compound>
O=C(O)C(F)(F)F.O=c1[nH]ccc2nc(N[C@@H]3CCNC3)nc(Nc3cc(Cl)cc(Cl)c3)c12 [GSK2188764]

>  <measured-target>
PHKG1

>  <cat>
label 1

$$$$
>  <compound>
CCOc1nccc(-c2c(-c3ccc(F)cc3)ncn2C2CCNCC2)n1 [SB-249175]

>  <measured-target>
PHKG1

>  <cat>
label 0

$$$$
>  <compound>
Cc1ccccc1CC(=O)N1CCc2cc(-c3cn(C)c4ncnc(N)c34)ccc21 [GSK2603346]

>  <measured-target>
PHKG1

>  <cat>
label 0

$$$$
>  <compound>
COc1cc(Nc2ccnc3cc(-c4ccncc4)ccc23)cc(OC)c1OC.Cl [GW494610]

>  <measured-target>
PHKG1

>  <cat>
label 1

$$$$
>  <compound>
Fc1cc(Cl)ccc1Nc1ccnc2cc(-c3ccc(CN4CCOCC4)o3)ccc12 [GW560109]

>  <measured-target>
PHKG1

>  <cat>
label 1

$$$$
>  <compound>
Cc1ccc(O)cc1Nc1ccnc2ccc(C(C)(C)C)cc12 [GW856805]

>  <measured-target>
PHKG1

>  <cat>
label 1

$$$$

###

Below: a set of entries, each annotated with reported %Inh.
- Tested on: MEK5
- Construct: gene MAP2K5
- recorded-conditions: concentration: 1 μM, replicates: in singlicate; n = 1

>  <molecule>
CC(=O)Nc1cn2nc(Oc3cccc(NC(=O)c4cccc(C(F)(F)F)c4)c3)ccc2n1

>  <measured-target>
MEK5

>  <%Inh, %>
93.3

$$$$
>  <molecule>
CN(C)c1ncnc2nc[nH]c12

>  <measured-target>
MEK5

>  <%Inh, %>
51

$$$$
>  <molecule>
O=C(Nc1c(F)cccc1F)c1cc(C(=O)c2ccccc2F)c[nH]1

>  <measured-target>
MEK5

>  <%Inh, %>
20

$$$$
>  <molecule>
Cc1ccc(C)c(NC(=O)Nc2ccc(C)c(-c3ccc(C(=O)Nc4ccncc4)cc3)c2)c1

>  <measured-target>
MEK5

>  <%Inh, %>
3

$$$$
>  <molecule>
O=C(Nc1n[nH]c2nc(-c3ccccc3O)ccc12)C1CC1

>  <measured-target>
MEK5

>  <%Inh, %>
63

$$$$
>  <molecule>
NCCC(NC(=O)c1cc(Br)c(-c2ccnc3[nH]ccc23)s1)c1ccccc1.O=C(O)C(F)(F)F.O=C(O)C(F)(F)F (centres unmarked)

>  <measured-target>
MEK5

>  <%Inh, %>
18

$$$$
>  <molecule>
Cn1cc(-c2cnc(N)c3c(-c4ccc5c(c4)CCN5C(=O)Cc4ccccc4)csc23)cn1

>  <measured-target>
MEK5

>  <%Inh, %>
99.8

$$$$
>  <molecule>
Cc1ccc(NC(=O)c2ccnc(N3CCCCC3)c2)cc1-c1ccc(C(=O)NCC2CC2)cc1

>  <measured-target>
MEK5

>  <%Inh, %>
1

$$$$

###

- Test system: BIKE
- Construct: gene BMP2K
- recorded-conditions: concentration: 1 μM, replicates: in singlicate; n = 1
Binary classification by %Inh, with 40% as an inclusive lower bound for Y; all other cases are N.

>  <molecule>
CC(C)c1nc(-c2cccc(NS(=O)(=O)c3c(F)cccc3F)c2)c(-c2ccnc(Nc3ccc(N4CCOCC4)nc3)n2)s1.Cl [GSK1723980]

>  <cat>
N

$$$$
>  <molecule>
Cc1ccc(O)cc1Nc1ccnc2ccc(C(C)(C)C)cc12 [GW856805]

>  <cat>
N

$$$$
>  <molecule>
Cl.Cl.NC(CNC(=O)c1cc(Br)c(-c2ccnc3[nH]ccc23)s1)c1ccccc1 (centres unmarked) [GSK1322949]

>  <cat>
Y

$$$$
>  <molecule>
Cl.Cl.NCC(NC(=O)c1cc(-c2cccnc2)c(-c2ccnc3[nH]ccc23)s1)c1ccccc1 (centres unmarked) [GSK1323434]

>  <cat>
Y

$$$$
